# Target of assay: T1, human guanylyl cyclase C (GCC) (human, UniProt P25092 24-1073)
# T1 construct: also called hGCC; STAR
# T1 sequence (P25092 24-1073 limits assumed): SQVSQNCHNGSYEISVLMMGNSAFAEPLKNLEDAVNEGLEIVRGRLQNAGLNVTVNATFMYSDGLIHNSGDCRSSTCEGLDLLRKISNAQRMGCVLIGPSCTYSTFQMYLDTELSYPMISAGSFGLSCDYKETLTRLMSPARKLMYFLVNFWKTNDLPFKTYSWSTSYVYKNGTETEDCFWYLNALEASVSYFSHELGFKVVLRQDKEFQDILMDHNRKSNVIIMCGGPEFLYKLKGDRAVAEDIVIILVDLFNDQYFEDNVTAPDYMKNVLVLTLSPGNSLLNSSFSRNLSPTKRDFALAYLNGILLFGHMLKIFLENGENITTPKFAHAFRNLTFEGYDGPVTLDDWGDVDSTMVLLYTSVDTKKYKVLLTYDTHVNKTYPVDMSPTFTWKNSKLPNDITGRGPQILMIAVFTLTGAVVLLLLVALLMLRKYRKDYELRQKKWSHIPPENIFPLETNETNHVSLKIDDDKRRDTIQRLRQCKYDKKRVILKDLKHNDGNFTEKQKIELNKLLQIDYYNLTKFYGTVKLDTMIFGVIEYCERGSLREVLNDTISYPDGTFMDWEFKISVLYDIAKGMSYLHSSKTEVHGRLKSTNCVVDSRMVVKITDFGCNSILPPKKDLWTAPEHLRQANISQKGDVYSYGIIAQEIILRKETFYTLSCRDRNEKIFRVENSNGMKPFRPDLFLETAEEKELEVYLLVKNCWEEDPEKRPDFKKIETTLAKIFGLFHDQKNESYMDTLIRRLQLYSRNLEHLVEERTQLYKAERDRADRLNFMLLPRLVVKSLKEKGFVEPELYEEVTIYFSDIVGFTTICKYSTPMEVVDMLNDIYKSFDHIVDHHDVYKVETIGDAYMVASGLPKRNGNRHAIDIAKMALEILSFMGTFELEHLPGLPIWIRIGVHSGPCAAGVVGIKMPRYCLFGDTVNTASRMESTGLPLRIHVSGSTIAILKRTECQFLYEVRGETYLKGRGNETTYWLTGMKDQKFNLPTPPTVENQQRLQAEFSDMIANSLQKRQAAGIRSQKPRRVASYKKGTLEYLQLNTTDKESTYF
# Assay notes: flow cytometry, 293 GCC #2 cells, 0.25 µg/ml

{"columns": ["Binder", "MFI"],
 "data": [
  ["5F9 vcMMAE immunoconjugate (antibody, V domains shown, mc-vc-MMAE linked to cysteines freed by partial reduction of interchain disulfides (outside this variable domain); average drug loading about 4 (3.6 in the described preparation), also called MLN0264; ML0264) VH: QVQLQQWGAGLLKPSETLSLTCAVFGGSFSGYYWSWIRQPPGKGLEWIGEINHRGNTNDNPSLKSRVTISVDTSKNQFALKLSSVTAADTAVYYCARERGYTYGNFDHWGQGTLVTVSS VL: EIVMTQSPATLSVSPGERATLSCRASQSVSRNLAWYQQKPGQAPRLLIYGASTRATGIPARFSGSGSGTEFTLTIGSLQSEDFAVYYCQQYKTWPRTFGQGTNVEIK", 7300],
  ["5F9-vc-MMAF (antibody, V domains shown, mc-vc-MMAF linked to cysteines freed by partial reduction of interchain disulfides (outside this variable domain); average drug loading about four) VH: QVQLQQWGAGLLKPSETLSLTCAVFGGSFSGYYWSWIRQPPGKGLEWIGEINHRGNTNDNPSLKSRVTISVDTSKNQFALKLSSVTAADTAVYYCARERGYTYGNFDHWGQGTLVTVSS VL: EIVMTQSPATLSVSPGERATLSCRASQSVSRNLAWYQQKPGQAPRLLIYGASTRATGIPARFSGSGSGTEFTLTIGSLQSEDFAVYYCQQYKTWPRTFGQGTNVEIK", 7560],
  ["anti-GCC human monoclonal antibody 5F9 (antibody, V domains shown, also called mAb 5F9; MAb 5F9 (Prep A)) VH: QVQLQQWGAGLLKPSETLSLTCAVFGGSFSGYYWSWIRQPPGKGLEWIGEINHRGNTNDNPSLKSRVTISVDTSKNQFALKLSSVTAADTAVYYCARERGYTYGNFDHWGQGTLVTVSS VL: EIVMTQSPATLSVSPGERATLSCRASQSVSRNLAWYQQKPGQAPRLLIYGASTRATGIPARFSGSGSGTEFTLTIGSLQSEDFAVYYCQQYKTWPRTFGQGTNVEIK", 7820],
  ["5F9-mc-MMAF (antibody, V domains shown, mc-MMAF (non-cleavable linker) linked to cysteines freed by partial reduction of interchain disulfides (outside this variable domain); average drug loading about four) VH: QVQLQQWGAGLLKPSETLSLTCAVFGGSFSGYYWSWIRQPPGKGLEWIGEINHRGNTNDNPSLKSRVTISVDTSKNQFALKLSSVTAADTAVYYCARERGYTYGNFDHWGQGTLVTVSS VL: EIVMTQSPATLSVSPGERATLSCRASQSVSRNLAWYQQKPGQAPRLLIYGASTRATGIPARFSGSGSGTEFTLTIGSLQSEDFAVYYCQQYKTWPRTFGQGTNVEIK", 7400]
]}
